target: IRAK4 (Homo sapiens); construct: Degradation of IRAK4 in OCI-LY10 was quantitatively measured using Meso Scale Discovery technology; endogenous in cells; host or cells: OCI-LY10; assay: IRAK4 MSD Degradation in OCI-LY10; assay type: cell-based; settings: OCI-LY10 cells, 24 hrs incubation, MSD; read-out: IRAK4 degradation in OCI-LY10 at 24 hrs: DC50
DC50 reference

O=C1CCC(c2cccc3c(C#CCOC4CCN(C[C@H]5CC[C@H](n6cc(NC(=O)c7cnn8ccc(N9C[C@H]%10C[C@@H]9CO%10)nc78)c(C(F)F)n6)CC5)CC4)cccc23)C(=O)N1 (some centres unmarked) [I-248]	10 to 100 nM

Q: State the recorded DC50 for this entry: Cn1c(=O)n(C2CCC(=O)NC2=O)c2cccc(C#CCN3CCN(C[C@H]4CC[C@H](n5cc(NC(=O)c6cnn7ccc(N8CC9CC(C8)O9)nc67)c(C(F)F)n5)CC4)CC3)c21 (some centres unmarked) [I-337]
A: < 10 nM

Q: State the recorded DC50 for this entry: CCn1c(=O)n(C2CCC(=O)NC2=O)c2cccc(C#CCO[C@H]3CCN(C[C@H]4CC[C@H](n5cc(NC(=O)c6cnn7ccc(N8C[C@H]9C[C@@H]8CO9)nc67)c(C(F)F)n5)CC4)C[C@@H]3C)c21 (some centres unmarked) [I-59]
A: > 200 nM

Q: State the recorded DC50 for this entry: O=C1CCC(n2c(=O)n(C3CC3)c3c(C#CCN4CCN(C[C@H]5CC[C@H](n6cc(NC(=O)c7cnn8ccc(N9C[C@H]%10C[C@@H]9CO%10)nc78)c(C(F)F)n6)CC5)CC4)cccc32)C(=O)N1 (some centres unmarked) [I-4]
A: > 200 nM

Q: State the recorded DC50 for this entry: C[C@H]1CN(C[C@H]2CC[C@H](n3cc(NC(=O)c4cnn5ccc(N6C[C@H]7C[C@@H]6CO7)nc45)c(C(F)F)n3)CC2)CC[C@@H]1OCC#Cc1cccc2c(N3CCC(=O)NC3=O)cncc12 [I-56]
A: > 200 nM

----------
molecular target: IRAK4 (Homo sapiens); construct: Degradation of IRAK4 in OCI-LY10 was quantitatively measured using Meso Scale Discovery technology; endogenous in cells; host or cells: OCI-LY10; experiment: IRAK4 MSD Degradation in OCI-LY10; assay type: cell-based; settings: OCI-LY10 cells, 4 hrs incubation, MSD; read-out: IRAK4 degradation in OCI-LY10 at 4 hrs: DC50
DC50 reference

Cn1c(=O)n(C2CCC(=O)NC2=O)c2cccc(C3CCN(C[C@H]4CC[C@H](n5cc6cc(NC(=O)c7cccc(C(F)(F)F)n7)ncc6n5)CC4)CC3F)c21 (some centres unmarked) [I-549]	> 0.2 µM

Q: Provide the documented DC50 with IRAK4 (Homo sapiens) as the system for Cn1c(=O)n(C2CCC(=O)NC2=O)c2cccc(C#CCN3CCN(C[C@H]4CC[C@H](n5cc(NC(=O)c6cnn7ccc(N8CCC8)nc67)c(C(C)(C)O)n5)CC4)CC3)c21 (some centres unmarked) [I-285]
A: > 0.2 µM

----------
Target: IRAK4 (Homo sapiens)
Construct: Degradation of IRAK4 in OCI-LY10 was quantitatively measured using Meso Scale Discovery technology; endogenous in cells; host or cells: OCI-LY10
Experiment: IRAK4 MSD Degradation in OCI-LY10
Format: cell-based
Conditions: OCI-LY10 cells, 24 hrs incubation, MSD; read-out: IRAK4 degradation in OCI-LY10 at 24 hrs: DC50
Procedure: Degradation of IRAK4 in OCI-LY10 was quantitatively measured using Meso Scale Discovery technology. […] Compounds were then added to the assay plates with a final top concentration of 1 to 10 μM in a 1:3 dilution series with total of 8 doses. […] The assay plates were then incubated at room temperature for 1 hour, washed 3 times with 150 μL/well TBST buffer, and 150 μL/well MSD reading buffer (Meso Scale Discovery catalog number R92TC-2) was added. […]
Result type: DC50

Cn1c(=O)n(C2CCC(=O)NC2=O)c2cccc(CC[C@@H]3CN(C[C@H]4CC[C@H](n5cc(NC(=O)c6cnn7ccc(N8C[C@H]9C[C@@H]8CO9)nc67)c(C(F)F)n5)CC4)CCO3)c21 (some centres unmarked)	> 0.2 µM
COc1cc2nn([C@H]3CC[C@H](CN4CCC5(CC4)CC(Oc4cccc6c4C(=O)N(C4CCC(=O)NC4=O)C6=O)C5)CC3)cc2cc1NC(=O)c1cccc(C(F)(F)F)n1 (some centres unmarked)	< 0.01 µM
COc1cc2nn([C@H]3CC[C@H](CN4CC=C(c5ccc6c(c5)n(C)c(=O)n6C5CCC(=O)NC5=O)C(F)(F)C4)CC3)cc2cc1NC(=O)c1cccc(C(F)(F)F)n1 (some centres unmarked) [I-462]	> 0.2 µM
Cn1c(NC(=O)c2cccc(C(F)(F)F)n2)cc2cn([C@H]3CC[C@H](CN4CC[C@@H](c5cccc6c5n(C)c(=O)n6C5CCC(=O)NC5=O)[C@H](F)C4)CC3)nc2c1=O (some centres unmarked)	> 0.2 µM

Next item in the queue.
Q: Provide the documented DC50 with IRAK4 (Homo sapiens) as the system for C[C@@H]([C@H]1CC[C@H](n2cc(NC(=O)c3cnn4cccnc34)c(C(F)F)n2)CC1)N(C)C1CCN(c2cccc3c2n(C)c(=O)n3C2CCC(=O)NC2=O)CC1 (some centres unmarked)
A: 0.1 to 0.2 µM

----------
target: IRAK4 (Homo sapiens, UniProt Q9NWZ3); construct: Degradation of IRAK4 in OCI-LY10 was quantitatively measured using Meso Scale Discovery technology; endogenous in cells; host or cells: OCI-LY10; assay: IRAK4 MSD Degradation in OCI-LY10; assay type: cell-based; details: OCI-LY10 cells, 4 hrs incubation, MSD; read-out: IRAK4 degradation in OCI-LY10 at 4 hrs: DC50
Sequence (Q9NWZ3 whole entry): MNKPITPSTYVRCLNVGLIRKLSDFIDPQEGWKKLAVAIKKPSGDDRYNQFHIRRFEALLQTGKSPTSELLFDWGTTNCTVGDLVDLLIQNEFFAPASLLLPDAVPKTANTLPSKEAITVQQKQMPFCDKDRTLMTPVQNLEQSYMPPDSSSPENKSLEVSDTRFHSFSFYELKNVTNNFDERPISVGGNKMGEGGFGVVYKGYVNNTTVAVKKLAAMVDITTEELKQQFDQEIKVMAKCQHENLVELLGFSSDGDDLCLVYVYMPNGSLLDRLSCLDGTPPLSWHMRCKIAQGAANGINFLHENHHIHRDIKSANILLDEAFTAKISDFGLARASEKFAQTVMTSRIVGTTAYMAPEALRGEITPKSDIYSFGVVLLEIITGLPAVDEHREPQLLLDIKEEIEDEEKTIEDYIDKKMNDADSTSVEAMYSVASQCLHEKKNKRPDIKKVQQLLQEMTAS
Result type: DC50

CN(C[C@H]1CC[C@H](n2cc(NC(=O)c3cnn4ccc(N5CCOC6(CC6)C5)nc34)c(C(F)F)n2)CC1)C1CCN(c2cccc3c2n(C)c(=O)n3C2CCC(=O)NC2=O)CC1(F)F (stereo partly drawn)	> 200 nM
CC1CN(c2ccn3ncc(C(=O)Nc4cn([C@H]5CC[C@H](CN6CCN(CC#Cc7cccc8c7n(C)c(=O)n8C7CCC(=O)NC7=O)CC6)CC5)nc4C(F)F)c3n2)CCO1 (stereo partly drawn)	> 200 nM

Next item in the queue.
Q: State the recorded DC50 for this entry: CN(C[C@H]1CC[C@H](n2cc(CC(=O)c3cnn4ccc(N5CCC(C)(C)CC5)nc34)c(C(F)F)n2)CC1)C1CCN(c2cccc3c2n(C)c(=O)n3C2CCC(=O)NC2=O)CC1 (stereo partly drawn)
A: > 200 nM

----------
target: IRAK4 (Homo sapiens, UniProt Q9NWZ3); construct: Degradation of IRAK4 in OCI-LY10 was quantitatively measured using Meso Scale Discovery technology; endogenous in cells; host or cells: OCI-LY10; assay: IRAK4 MSD Degradation in OCI-LY10; format: cell-based; details: OCI-LY10 cells, 4 hrs incubation, MSD; read-out: IRAK4 degradation in OCI-LY10 at 4 hrs: DC50
DC50 reference

Study these solved cases before continuing.
COc1cc2nn([C@H]3CC[C@H](CN4CCC5(CC4)CCN(c4cccc6c4n(C)c(=O)n6C4CCC(=O)NC4=O)CC5)CC3)cc2cc1NC(=O)c1cncc([S+]([O-])C(F)(F)F)c1 (stereo partly shown) [I-153]	> 200 nM
Cn1c(=O)n(C2CCC(=O)NC2=O)c2cccc(N3CCC(N4CC5(CCC(n6cc7cc(NC(=O)c8cccc(C(F)(F)F)n8)c(C#N)cc7n6)CC5)C4)C(F)(F)C3)c21 (stereo not shown) [I-566]	> 200 nM

Q: State the recorded DC50 for this entry: Cn1c(=O)n(C2CCC(=O)NC2=O)c2cccc(C#CCN3CC4CC(C3)N4C[C@H]3CC[C@H](n4cc(NC(=O)c5cnn6ccc(N7C[C@H]8C[C@@H]7CO8)nc56)c(C(F)F)n4)CC3)c21 (stereo partly shown) [I-344]
A: > 200 nM

Q: State the recorded DC50 for this entry: COc1cc2nn([C@H]3CC[C@H](CN4CCC5(CC4)CCN(c4cccc6c(C7CCC(=O)NC7=O)cccc46)CC5)CC3)cc2cc1NC(=O)c1cncc(C#N)c1 (stereo partly shown) [I-252]
A: > 200 nM

Q: State the recorded DC50 for this entry: COc1ccc(C(F)(F)F)nc1C(=O)Nc1cc2cn([C@H]3CC[C@@H](CN4CCC5(CC4)CC(CNc4cccc6c4C(=O)N(C4CCC(=O)NC4=O)C6=O)C5)CC3)nc2cc1C(C)(C)O (stereo partly shown) [I-137]
A: > 200 nM

Q: State the recorded DC50 for this entry: Cn1c(=O)n(C2CCC(=O)NC2=O)c2cccc(N3CCC(OC4CCN(C[C@H]5CC[C@H](n6cc(NC(=O)c7cnn8ccc(N9C[C@H]%10C[C@@H]9CO%10)nc78)c(C(F)F)n6)CC5)CC4)CC3)c21 (stereo partly shown) [I-165]
A: < 10 nM

Q: State the recorded DC50 for this entry: Cc1cccc(C(=O)Nc2ccc3nn([C@H]4CC[C@H](CN5CC[C@@H](c6cccc7c6n(C)c(=O)n7C6CCC(=O)NC6=O)[C@H](F)C5)CC4)cc3c2)n1 (stereo partly shown) [I-727]
A: > 200 nM

Q: State the recorded DC50 for this entry: CN1C(=O)C(C2CCC(=O)NC2=O)c2cccc(N3CCN(CC4CCC(n5cc6cc(NC(=O)c7cccc(C(F)(F)F)n7)c(S(C)(=N)=O)cc6n5)CC4)CC3)c21 (stereo not shown) [I-129]
A: < 10 nM

Q: State the recorded DC50 for this entry: Cn1c(=O)n(C2CCC(=O)NC2=O)c2cccc(N3CC4(CCN(Cc5ccc(-n6cc(NC(=O)c7cnn8ccc(N9C[C@H]%10C[C@@H]9CO%10)nc78)c(C(F)F)n6)cc5)CC4)C3)c21 (stereo partly shown) [I-400]
A: 10 to 100 nM

Q: State the recorded DC50 for this entry: C[C@H]1CN(C[C@H]2CC[C@H](n3cc(NC(=O)c4cnn5ccc(N6C[C@H]7C[C@@H]6CO7)nc45)c(C(F)F)n3)CC2)CC[C@@H]1OCC#Cc1cccc2c1n(C)c(=O)n2[C@@H]1CCC(=O)NC1=O (single isomer, unassigned) [I-73]
A: 10 to 100 nM
